The measurements presented in this section are drawn from PubChem BioAssay (NCI).

Recorded growth, one value per entry.
Test system: OVCAR-4 ovarian
measurement protocol: NCI-60 one-dose screen, 48 h (100 = growth as untreated, 0 = no growth, -100 = all killed)
applied conditions: 10 µM
About 83,000 compounds went through this panel and 20% of them were active in at least one assay; those are over-represented in the sample as a whole.
State just the number; it will be interpreted in %.

molecule	growth [%]
COc1ccc(-c2nnc(SCC(=O)c3ccccc3)o2)cc1	108

-- ask What does the data say about its growth? Entry: `COC(=O)c1ccc(Cn2ccc(=O)[nH]c2=O)cc1`
-- reply 109

-- ask Follow-up item: `Cc1cc(C(C)(C)CC(C)(C)C)ccc1OCCOCC[N+](C)(C)Cc1ccccc1`
-- reply 2.92

-- ask Now try `COc1cc(Cn2c(-c3ccccc3)cc3c2-c2oncc2CC3)cc(OC)c1` .
-- reply 51.8

-- ask Quick one: `CCCCCc1cc[n+](CC(=O)c2ccc(Cl)cc2)cc1`
-- reply 96.3

-- ask Field entry: O=c1[nH]c(=O)n(C2C[C@@H](O)[C@@H](CO)O2)cc1F (stereo partly specified)
-- reply 39

----------
Test system: SK-OV-3 ovarian
measurement protocol: NCI-60 one-dose screen, 48 h (100 = growth as untreated, 0 = no growth, -100 = all killed)
applied conditions: 10 µM
The panel holds about 83,000 compounds, 20% with a hit somewhere; the sample as a whole holds those more often.
result type: growth (%)
Reply with just the number (in %).

compound	val
CCCCC(CC#N)(CCC)CCC	94.8

-- ask Param readout= growth; system= SK-OV-3 ovarian; entry= `COc1cc2c3c(cccc3c1)C(=O)N(CCN1CCCC1)C2=O` ; returns value.
-- reply 34.1

-- ask Continue with CCCCCC(=O)N1c2ccccc2NC2=C(C(=O)CC(c3ccc(OC)c(OC)c3)C2)C1c1ccc(C(F)(F)F)cc1 (stereo unspecified)
-- reply 83.6

-- ask Moving on to `Cc1ccc(/C(CS(=O)(=O)c2ccc(C)cc2)=N\O)cc1`
-- reply 112

-- ask Also check `COc1ccc(-c2nc(-c3nc4ccc(C)cc4[nH]3)c3ccccn23)cc1`
-- reply 85.9

-- ask Same question for `CCCCCCCOc1cccc(/C=C2/C(=O)N=C3SCCCN32)c1` please.
-- reply 88

-- ask And for `FC(F)(F)c1ccc(-c2nc(-c3nc4cc(Cl)c(Cl)cc4[nH]3)c3ccccn23)cc1` ?
-- reply 38

-- ask Entry `COc1cccc(C(=O)NNc2nc(N3CCN(C4CCCCC4)CC3)nc(N3CCN(C(c4ccccc4)c4ccccc4)CC3)n2)c1` please
-- reply 52.2

-- ask Proceed to `O=C(Cn1ccc(=O)[nH]c1=O)c1ccc([N+](=O)[O-])o1`
-- reply 112

----------
System: EKVX NSCLC
measurement protocol: NCI-60 one-dose screen, 48 h
applied conditions: 10 µM
This is part of a sample that, as a whole, favours compounds with a hit. Of some 83,000 tested, about 20% had one in any assay. Calls of active or inactive are those of the source. Rule for the calls: active = growth percent below 10; inactive = the rest.
Respond only with the outcome that fits, drawn from active, inactive

compound	class label
O=C1/C(=C/c2ccc(O)cc2O)N=C2SCCCN12	inactive

-- ask Entry `O=c1cc(CSc2nnc(-c3ccccc3)n2-c2ccc(F)cc2)c2ccc3ccccc3c2o1` : call = ?
-- reply inactive

-- ask // query: `O=C(/C=C/c1nnc2n(Cc3ccccc3)c(=O)c3c4c(sc3n12)CCCC4)c1ccccc1`
-- reply inactive

-- ask Continue with `COc1cc(OC)cc(-c2n/c(=C\c3c(O)[nH]c4ccc(OC)cc34)cc3c2=Nc2ccccc2-3)c1`
-- reply inactive

-- ask And `CC(=O)/C(=C\c1ccc(Cl)cc1)c1ccccc1` ?
-- reply inactive

-- ask Check `CCCCn1c(=O)[nH]c2c(c1=O)C(c1ccc(Cl)cc1)c1c([nH]c(=O)n(CCCC)c1=O)N2` too.
-- reply inactive

----------
Tested on: CCRF-CEM leukemia
measurement protocol: NCI-60 one-dose screen, 48 h
applied conditions: 10 µM
The panel holds about 83,000 compounds, 20% with a hit somewhere; the sample as a whole holds those more often. The source made the active and inactive calls. Rule for the calls: active = growth percent below 10; inactive = the rest.
Hello, when you answer, please use one of the following outcomes: active, inactive

molecule	subject of test	class label
[O-]c1c[n+](-c2ccc(Cl)cc2)no1	CCRF-CEM leukemia	inactive

-- ask I'd appreciate the recorded outcome for `COc1ccc(C(=O)/C=C/c2cc(-c3ccc(OC)c(OC)c3)n[nH]2)cc1OC` from this test.
-- reply active

-- ask For `O=S(=O)(NCCO)c1ccc(OCCOc2ccc(S(=O)(=O)NCCO)cc2)cc1` then?
-- reply inactive

-- ask Request: `O=C(COCc1c(-c2ccccc2)no[n+]1[O-])Nc1nc(-c2ccc(Cl)cc2)cs1`
-- reply inactive

-- ask Then this molecule: `COc1cc2ccnc(C=O)c2cc1OC`
-- reply active

-- ask Check `Cc1nn2c(/C=C3/C(=O)Nc4ccc(Cl)cc43)c(-c3ccccc3)nc2s1` too.
-- reply inactive

-- ask Please answer likewise for `CCOC(=O)c1ccc(NC(=O)Nc2nncs2)cc1`
-- reply active

----------
System: KM12 colon
measurement protocol: NCI-60 one-dose screen, 48 h (100 = growth as untreated, 0 = no growth, -100 = all killed)
applied conditions: 10 µM
Compounds without any hit were thinned out: in the full panel of roughly 83,000, 20% have a hit.
result type: growth (%)
Please state the figure in %; there is no need to write the unit.

C/C(=N\NC(=O)c1sc(=S)n(C)c1N)c1cc2ccccc2o1 21.5

-- ask # get_value(readout='growth', item= `COc1ccc(-c2nc(SCC(=O)c3ccc(Br)cc3)[nH]c(=O)c2C#N)cc1` )
-- reply 96.9

-- ask Next compound up: `CCOC(=O)c1c(Cl)c2c(n1Cc1cccc(OC)c1)-c1oncc1CC2`
-- reply 25.9

----------
Tested on: RXF 393 renal
measurement protocol: NCI-60 one-dose screen, 48 h (100 = growth as untreated, 0 = no growth, -100 = all killed)
applied conditions: 10 µM
The panel holds about 83,000 compounds, 20% with a hit somewhere; the sample as a whole holds those more often.
result type: growth (%)
The figure you give is taken to be in %; do not add the unit.

Solved cases below.
O=C(Nc1cccc(C(F)(F)F)c1)C(Cl)Cl 104
Clc1ccc(-c2nc(-c3cccs3)cn3ccnc23)cc1 86.7
Cc1nc(Nc2nc3ccccc3o2)nc(-c2cccc([N+](=O)[O-])c2)c1C(=O)Nc1ccc(F)c(Cl)c1 29.4

-- ask Any idea what growth came out for `O=C(NC1CCCC1)c1ccc(N2CCC(NCc3cccc(C(F)(F)F)c3)CC2)cc1` on RXF 393 renal?
-- reply 79.1

-- ask Another compound to look at: `CC(=O)OCC(COC(C)=O)(COC(C)=O)COC(C)=O`
-- reply 104

-- ask What about this compound? `CCOC(=O)CSC(=S)SCC(=O)OCC`
-- reply 109

----------
Tested on: CAKI-1 renal
measurement protocol: NCI-60 one-dose screen, 48 h (100 = growth as untreated, 0 = no growth, -100 = all killed)
applied conditions: 10 µM
About 83,000 compounds went through this panel and 20% of them were active in at least one assay; those are over-represented in the sample as a whole.
Threshold-based label: growth under 30% gives Met, growth not under 30% gives Not met.

Sample answers from the record:
molecule	class label
CCOC(=O)c1c(O)c2cc(-c3ccccc3)nc(OCC)c2c(=O)n1C	Not met
N#CN1CC[C@H](C(=O)Nc2ncc(-c3ccncc3)s2)C1	Met
O=C1/C(=C/c2ccc([N+](=O)[O-])s2)Oc2ccc(Cl)cc21	Met
CC(=O)Nc1nc(C)c(C(=O)NNC=O)s1	Not met
COc1ccc(C(=O)/C=C/c2cc(-c3ccc(OC)c(OC)c3)n[nH]2)cc1OC	Met
Clc1ccc(-c2nc(-c3cccs3)cn3ccnc23)cc1	Not met
CCN(CCCNC(=O)Cc1cc(=O)oc2cc(N(C)C)ccc12)CCNc1ccnc2cc(Cl)ccc12	Not met
O=C(Nc1ccc(Oc2ccc(Nc3nc4ccccc4s3)cc2)cc1)Nc1ccc(Cl)c(Cl)c1	Not met
O=C(COCc1c(-c2ccccc2)no[n+]1[O-])Nc1nc(-c2ccc(Cl)cc2)cs1	Not met
Cc1nc(Nc2nc3ccccc3o2)nc(-c2cccc([N+](=O)[O-])c2)c1C(=O)Nc1ccc(F)c(Cl)c1	Met

-- ask growth strictly < 30% for this molecule? `COc1cc(CSc2nc3ccc(Cl)cc3c(=O)n2Cc2ccccc2)cc(OC)c1OC`
-- reply Met

-- ask // same read-out, input: `NCCNc1ccc2cc(-c3nc4ccccc4[nH]3)c(=O)oc2c1`
-- reply Not met

----------
Tested on: SR leukemia
measurement protocol: NCI-60 one-dose screen, 48 h
applied conditions: 10 µM
The panel holds about 83,000 compounds, 20% with a hit somewhere; the sample as a whole holds those more often. Calls of active or inactive are those of the source. How the source made its calls: active means growth percent below 10; inactive means the rest.
Result category, one only: active, inactive

Take a look at these entries with their results.
compound	class label
CCOC(=O)c1cc2c(n1Cc1cccc(OC)c1)-c1oncc1CC2	inactive
Cc1cc2cc3c(=O)[nH]c(=O)cc-3n(CC(O)C(O)C(O)CO)c2cc1C (stereo unspecified)	inactive
O=C/C=C/c1ccc([N+](=O)[O-])cc1Cl	active
NC(N)=NS(=O)(=O)c1ccc(Nc2ccc3nnc(-c4ccncc4)n3n2)cc1	inactive
Cc1ccccc1[P+](Cc1ccccc1)(c1ccccc1)c1ccccc1	active

-- ask Would you mind telling me which call this test gave `COc1cccc(C(=O)NNc2nc(N3CCOCC3)nc(N3CCN(C(c4ccccc4)c4ccccc4)CC3)n2)c1` ?
-- reply inactive

-- ask Ok, now `CCCCCCN=C(N)CCCCCCCCCCC(N)=NCCCCCC`
-- reply inactive

-- ask Moving on to CCCCCN(CCCCC)C(C)C(O)c1ccc2cc(Cl)c3ccccc3c2c1 (stereo unspecified)
-- reply inactive
